target: human alpha-synuclein (human, UniProt P37840 1-140); assay: SPR Biacore 3000, IgG captured by anti-human IgG on CM5 chip
# reported KD improvement; entries follow
Numeric answer only, unit fold assumed.

# count of solved cases: 3
Recorded KD improvement of 8D9 (antibody, V domains shown) VH: QVQLVQSGAEVKKPGASVKVSCKASGYTFTSYWMHWMRQAPGQGLEWIGRIDPNSGTTKYNVNFKTRATLTVDKSTSTAYMELSSLRSEDTAVYYCARLGHYGNLYAKDYWGQGTLVT VL: EIVLTQSPATLSLSPGERATLSCSASSSVSYIHWYQQKPGQAPRRWIYDTSKLASGVPARFSGSGSGTDYTLTISSLEPEDFAVYYCQQWSSNPPTFGQGTKLEIK , please. 8.7

Recorded KD improvement of ch2E6 (antibody, V domains shown, also called chimeric 2E6) VH: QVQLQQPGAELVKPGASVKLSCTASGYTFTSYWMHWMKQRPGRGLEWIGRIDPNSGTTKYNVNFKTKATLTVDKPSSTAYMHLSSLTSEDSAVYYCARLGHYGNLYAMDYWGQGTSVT VL: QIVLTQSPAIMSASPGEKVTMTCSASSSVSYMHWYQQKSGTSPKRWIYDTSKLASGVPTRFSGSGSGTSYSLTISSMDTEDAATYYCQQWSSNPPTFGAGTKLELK , please. 1

Recorded KD improvement of 7C4 (antibody, V domains shown) VH: QVQLVQSGAEVKKPGASVKVSCKASGYTFTRYWMHWMRQAPGQGPEWIGRIDPNSGTTKYNVNFKTRATLTVDKSTSTAYMELSSLRSEDTAVYYCARLGHYGNLYAMDYWGQGTLVT VL: EIVLTQSPATLSLSPGERATLSCSASSSVSFMHWYQQKPGQAPRRWIYDTSKLASGVPARFSGSGSGTDYTLTISSLEPEDFAVYYCQQWSSNPPTFGQGTKLEIK , please. 7

Now examine the next entry.
Recorded KD improvement of 2E6-HLD-1 (antibody, V domains shown, Humanized 2E6 tested as IgG; also called Humanized HLD-1) VH: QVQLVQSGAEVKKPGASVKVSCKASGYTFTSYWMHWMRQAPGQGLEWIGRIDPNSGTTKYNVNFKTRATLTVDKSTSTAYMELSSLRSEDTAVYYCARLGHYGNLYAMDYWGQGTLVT VL: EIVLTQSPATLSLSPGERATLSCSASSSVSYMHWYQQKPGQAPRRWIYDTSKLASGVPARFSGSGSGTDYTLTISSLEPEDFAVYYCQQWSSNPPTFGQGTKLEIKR , please. 2.5
